The reported numbers originate from patent US9198433B2.

Exercise: state measured Percentage Disease Control, Test B for each of the compounds provided.
# Test system: Puccinia recondita f. sp. tritici
# Run Description: Test B: wheat leaf rust, preventive spray on wheat seedlings, disease rating
# Assay type: in vivo
# Setup Conditions: 40 ppm (*)
# Text: The test compounds were first dissolved in acetone in an amount equal to 3% of the final volume and then suspended at the desired concentration (in ppm) in acetone and purified water (50/50 mix) containing 250 ppm of the surfactant Trem® 014 (polyhydric alcohol esters). The resulting test suspensions were then used in Tests A-L. Spraying a 200 ppm test suspension to the point of run-off on the test plants was the equivalent of an application rate of 500 g/ha. […]
Marks after values point to notes of the source that are not given here.

For each listed entry, give its Percentage Disease Control, Test B.
1. COC(=O)NCc1cc(-c2ccn(Cc3cc(C(F)(F)F)ccc3Cl)n2)ccc1Cl
2. COC(=O)NCc1cc(-c2ccn(-c3nc(C4CC4)ns3)n2)ccc1Cl
3. COC(=O)NCc1cc(-c2cc(C(F)(F)F)n(CCC[Si](C)(C)C)n2)ccc1Cl
4. COC(=O)NCc1cc(-c2ccn(-c3nc(OC)ns3)n2)ccc1Cl
5. COC(=O)NCc1cc(-c2ccn(Cc3ccc(C)cc3)n2)ccc1Cl
6. CCCCCc1cc(-c2ccc(Cl)c(CNC(=O)OC)c2)nn1C
7. COC(=O)NCc1cc(-c2ccn(Cc3ccccc3C)n2)ccc1Cl
8. COC(=O)NCc1cc(-c2ccn(-c3ccc(C(F)(F)F)cc3)n2)ccc1Cl

stdout:
99* %
100* %
100* %
97* %
99* %
98* %
99* %
99* %
